system: CCRF-CEM; test: NCI tumour cell line growth inhibition, 48 h
Calls of active or inactive are those of the source. Cut-off read from the data, not from the text of the source: active = GI50 up to about 1.1 µM and inactive = higher.
Choose the fitting class; nothing outside active, inactive is accepted.

Use these answered entries as a reference point.
CNC(=O)NS(=O)(=O)c1ccc(C)cc1.NS(=O)O    inactive
O[C@H]1[C@H](O)[C@@H](O)[C@H](O)[C@@H](O)[C@H]1O    inactive
CC(=O)NC1C(OCc2ccccc2)OC(CO)C(O)C1OC(C)C(=O)NC(C)C(=O)NC(CCC(=O)NCCCCNc1c2ccccc2nc2cccc([N+](=O)[O-])c12)C(N)=O (centres undefined)    active
C[C@]12CC[C@@H]3c4ccc(OC(=O)N(CCCl)CCCl)cc4CC[C@H]3[C@@H]1CC[C@@H]2O    active
O=C(/C=C(\O)C(=O)O)/C=C(\O)c1ccccc1    inactive

Field: outcome | Entry: C/C=C/[C@@H]1O[C@H](CC#C[Si](C)(C)C)[C@@]2(C=O)C(C)=CC[C@H](C(C)C)[C@@H]12
inactive

Which outcome was entered for the molecule O=c1cc(/C=C/c2ccc(O)c(O)c2)oc(/C=C/c2ccc(O)c(O)c2)c1 in this test?
inactive

====

system: RPMI-8226; assay: NCI tumour cell line growth inhibition, 48 h
Activity calls are given as the source filed them. No stated cut-off is given here; in the data, active = GI50 up to about 1.1 µM and inactive = higher.
Collected GI50 values appear next to each entry.

CC1(C)OC[C@H](C(=N)OCc2ccccc2)O1    > 100 µM (inactive)
CO[C@@H]1[C@H](O)CC[C@]2(CO2)[C@H]1[C@@]1(C)O[C@@H]1CC=C(C)C    185 µM (inactive)
CCN(CC)CCN1CCN=C2c3cc(OC)ccc3Nc3c([N+](=O)[O-])ccc1c32    0.64 µM (active)

Could you please provide reported GI50 for CN1NC(c2ccccc2)=C(C#N)C(=O)CC1c1ccccc1Cl (stereo unspecified) ? Thanks!
> 100 µM (inactive)

Find the measured GI50 of CCOC(=O)CCC(NC(=O)c1ccc(Oc2nc3c(N)cc(C(F)(F)F)cc3nc2-c2ccccc2)cc1)C(=O)OCC (stereo unspecified) and report it.
> 45.9 µM (inactive)

Quick one: give measured GI50 for NNC(=O)c1cc(=O)[nH][nH]1
> 100 µM (inactive)

Write down GI50 measured for item COc1ccc(Nc2nc(N)c(C(=O)c3ccccc3)s2)cc1
0.0681 µM (active)

Tell us which GI50 value is on record for CC(=O)OC1CC2C(=O)C(=O)C1(C)C2(C)C (stereo unspecified)
> 100 µM (inactive)

Provide one value: measured GI50 of O=c1oc2c3ccc4ccccc4c3n(Cc3nc4ccccc4[nH]3)c2c2ccccc12
3.48 µM (inactive)

Fill in GI50 for record Cc1cc2sc(C)[n+](CCCOS(=O)(=O)[O-])c2cc1C
53 µM (inactive)

Answer with the recorded GI50 of CCN(CC)C(=S)N/N=C(/c1ccccc1)c1ccccn1 only.
0.11 µM (active)

====

system: OVCAR-4; assay: NCI tumour cell line growth inhibition, 48 h
The source made the active and inactive calls. Cut-off read from the data, not from the text of the source: active = GI50 up to about 1.1 µM and inactive = higher.
Collected GI50 values appear next to each entry.

N#Cc1c(N)c2c(c(-c3ccccc3)c1-c1ccccc1)C(=O)N(NC(=S)Nc1ccccc1)C2=O    51.1 µM (inactive)

Name the recorded GI50 of the molecule listed here: COc1ccc(CN2CCC/C=C/CC(Cl)(Cl)C2=O)cc1
23 µM (inactive)

Output GI50 of O=Cc1ccc2c(c1I)OCO2
> 100 µM (inactive)

Give me measured GI50, please, for this molecule: O=C(/C=C/c1ccccc1)CSc1nc[nH]n1
> 100 µM (inactive)

Determine its reported GI50: CCOc1ncn(-c2ccc(NC(=S)Nc3cccc(O)c3)cc2)n1
> 100 µM (inactive)

Give the reported value of GI50 for this record: CCOC(=O)c1sc2[n+](c1C)C(=O)/C(=C/c1ccccc1Cl)S2
33.3 µM (inactive)

// provenance: ChEMBL document CHEMBL1201862
